Collected IC50 values appear next to each entry.
Tested target: UniProt Q99572
Test name: Human P2X7 functional assay (Ca2+ influx, Fluo-4, FDSS)
Assay type: cell-based
Conditions: antagonistic activity with respect to the human P2X7 receptor; BzATP final concentration 80 microM
Endpoint name: IC50

[[record]]
compound = "O=C(NCc1ccc(Br)cc1Cl)[C@]1(F)CC[C@H](O)c2ncccc21"
result = "< 50 nM"

[[record]]
compound = "O=C1CC[C@@](F)(C(=O)NCc2ccc(Cl)cc2Cl)c2cccnc21"
result = "< 50 nM"

[[record]]
compound = "O=C(NCc1cc(Cl)cc(Cl)c1)[C@]1(F)CC[C@H](O)c2ncccc21"
result = "101 to 300 nM"

[[record]]
compound = "O=C(NCc1ccc(F)cc1C(F)(F)F)[C@]1(F)CC[C@@H](O)c2ncccc21"
result = "301 to 1000 nM"

[[record]]
compound = "O=C(NCc1cccc(Cl)c1)[C@]1(F)CC[C@H](O)c2ncccc21"
result = "50 to 100 nM"

[[record]]
compound = "Cc1cc(Cl)cc(Cl)c1CNC(=O)C1(O)CCC(O)c2ncccc21 (stereo not shown)"
result = "< 50 nM"

[[record]]
compound = "O=C(NCc1ccc(F)c(F)c1)[C@]1(F)CC[C@H](O)c2ncccc21"
result = "50 to 100 nM"

[[record]]
compound = "O=C(NCc1ncc(Cl)cc1Cl)[C@]1(F)CC[C@H](O)c2ncccc21"
result = "< 50 nM"

[[record]]
compound = "CO[C@H]1CC[C@@](F)(C(=O)NCc2ccc(F)cc2Cl)c2cccnc21"
result = "< 50 nM"

[[record]]
compound = "O=C(NCc1ccc(Cl)cc1Cl)[C@H]1CC[C@H](O)c2ncccc21"
result = "301 to 1000 nM"

[[record]]
compound = "Cc1cc(Cl)cc(Cl)c1CNC(=O)C1CCC(O)c2ncccc21 (stereo not shown)"
result = "< 50 nM"

[[record]]
compound = "O=C(NCc1ccccc1CN1CCOCC1)[C@]1(F)CC[C@H](O)c2ncccc21"
result = "101 to 300 nM"

[[record]]
compound = "O=C(NCC1(c2ccc(Cl)cc2Cl)CCOCC1)[C@]1(F)CC[C@H](O)c2ncccc21"
result = "301 to 1000 nM"

[[record]]
compound = "O=C(NCc1cccc(C(F)(F)F)c1Cl)C1(F)CCC(O)(CO)c2ncccc21 (stereo not shown)"
result = "< 50 nM"

[[record]]
compound = "O=C(NC1COc2cc(Cl)cc(Cl)c21)[C@]1(F)CC[C@H](O)c2ncccc21 (stereo partly shown)"
result = "< 50 nM"

[[record]]
compound = "C[C@@H](NC(=O)[C@]1(F)CC[C@](O)(CO)c2ncccc21)c1ccc(F)cc1Cl"
result = "101 to 300 nM"

[[record]]
compound = "CC1(O)CCC(F)(C(=O)NCc2cccc(C(F)(F)F)c2Cl)c2cccnc21 (stereo not shown)"
result = "< 50 nM"

[[record]]
compound = "O=C(N[C@@H]1CCCc2ccccc21)[C@]1(F)CC[C@H](O)c2ncccc21"
result = "< 50 nM"

[[record]]
compound = "O=C(NCc1ccc(Cl)cc1F)[C@]1(F)CC[C@H](O)c2ncccc21"
result = "< 50 nM"

[[record]]
compound = "O=C(NCC(c1ccccc1)N1CCOCC1)[C@]1(F)CC[C@H](O)c2ncccc21 (mixture of isomers)"
result = "1000 to 3000 nM"

[[record]]
compound = "Cc1cc(Cl)cc(Cl)c1CNC(=O)C1CCC(O)(CO)c2ncccc21 (stereo not shown)"
result = "< 50 nM"

[[record]]
compound = "Cc1cc(Cl)cc(Cl)c1CNC(=O)[C@H]1CC[C@H](O)c2ncccc21"
result = "101 to 300 nM"

[[record]]
compound = "COCc1cc(Cl)cc(Cl)c1CNC(=O)C1(F)CCC(O)c2ncccc21 (stereo not shown)"
result = "< 50 nM"

[[record]]
compound = "O=C(NCc1ccc(F)c(F)c1F)[C@]1(F)CC[C@](O)(CO)c2ncccc21"
result = "1000 to 3000 nM"

[[record]]
compound = "O=C(NCc1c(Cl)cc(Cl)cc1CO)[C@@]1(F)CC[C@@H](O)c2ncccc21"
result = "< 50 nM"

[[record]]
compound = "O=C(NCc1ccc(Cl)cc1F)[C@]1(F)CC[C@@H](O)c2ncccc21"
result = "301 to 1000 nM"

[[record]]
compound = "O=C(NCc1c(F)cc(Cl)cc1Cl)[C@H]1CC[C@@H](O)c2ncccc21"
result = "101 to 300 nM"

[[record]]
compound = "O=C(NCc1ccc(Cl)cc1Cl)[C@]1(F)CC[C@H](OCC(O)CO)c2ncccc21 (stereo partly shown)"
result = "< 50 nM"

[[record]]
compound = "COC1CN(C[C@]2(O)CC[C@@](F)(C(=O)NCc3ccc(F)cc3Cl)c3cccnc32)C1 (relative stereo)"
result = "< 50 nM"

[[record]]
compound = "O=C1CCC(F)(C(=O)NCc2c(Cl)cc(Cl)cc2CO)c2cccnc21 (stereo not shown)"
result = "< 50 nM"

[[record]]
compound = "O=C(NCc1ccc(F)c(F)c1F)[C@H]1CC[C@@H](O)c2ncccc21"
result = "1000 to 3000 nM"

[[record]]
compound = "O=C(N[C@H]1CCC[C@@H]1OCc1ccccc1)[C@]1(F)CC[C@H](O)c2ncccc21"
result = "301 to 1000 nM"

[[record]]
compound = "O=C(NCc1ccc(F)cc1F)[C@]1(F)CC[C@@H](O)c2ncccc21"
result = "301 to 1000 nM"

[[record]]
compound = "C[C@]1(O)CC[C@@](F)(C(=O)NCc2ccc(F)c(Cl)c2F)c2cccnc21"
result = "< 50 nM"


* * *

Tested target: human P2X7 (Homo sapiens (Human))
Sequence (Q99572 whole entry): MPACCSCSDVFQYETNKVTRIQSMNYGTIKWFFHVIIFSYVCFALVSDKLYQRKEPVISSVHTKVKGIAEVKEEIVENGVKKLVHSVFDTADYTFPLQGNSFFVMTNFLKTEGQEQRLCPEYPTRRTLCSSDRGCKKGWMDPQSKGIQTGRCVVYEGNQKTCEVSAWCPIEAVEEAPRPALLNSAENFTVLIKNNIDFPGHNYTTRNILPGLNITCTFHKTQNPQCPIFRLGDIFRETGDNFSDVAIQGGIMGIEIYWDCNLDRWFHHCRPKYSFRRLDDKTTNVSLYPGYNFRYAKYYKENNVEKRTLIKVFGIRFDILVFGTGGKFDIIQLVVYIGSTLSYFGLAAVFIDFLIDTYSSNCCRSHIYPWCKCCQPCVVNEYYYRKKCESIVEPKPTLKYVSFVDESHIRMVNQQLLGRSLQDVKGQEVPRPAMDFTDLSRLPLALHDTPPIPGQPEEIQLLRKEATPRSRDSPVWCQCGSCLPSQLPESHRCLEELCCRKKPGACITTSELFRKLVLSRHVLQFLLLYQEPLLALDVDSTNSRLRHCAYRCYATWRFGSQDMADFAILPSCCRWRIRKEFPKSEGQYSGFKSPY
Test name: Human P2X7 functional assay (Ca2+ influx, Fluo-4, FDSS)
Format: cell-based
Conditions: antagonistic activity with respect to the human P2X7 receptor; BzATP final concentration 80 microM
Endpoint name: IC50

[[record]]
molecule = "O=C(NCc1ccc(Cl)cc1Cl)[C@]1(F)CC[C@H](O)c2ncccc21"
tested_target = "human P2X7 (Homo sapiens (Human))"
result = "< 50 nM"

[[record]]
molecule = "Cc1cc(Cl)cc(Cl)c1CNC(=O)C1(O)CCC(=O)c2ncccc21 (stereo not drawn)"
tested_target = "human P2X7 (Homo sapiens (Human))"
result = "301 to 1000 nM"

[[record]]
molecule = "O=C(NCc1ccc(F)cc1Cl)[C@]1(F)CC[C@H](O)c2ncccc21"
tested_target = "human P2X7 (Homo sapiens (Human))"
result = "< 50 nM"

[[record]]
molecule = "Cc1ccc(CNC(=O)[C@]2(F)CC[C@H](O)c3ncccc32)c(Cl)c1"
tested_target = "human P2X7 (Homo sapiens (Human))"
result = "< 50 nM"

[[record]]
molecule = "O=C(NCc1cccc(C(F)(F)F)c1Cl)[C@@]1(F)CC[C@H](F)c2ncccc21"
tested_target = "human P2X7 (Homo sapiens (Human))"
result = "< 50 nM"

[[record]]
molecule = "O=C1COC[C@@]2(CC[C@@](F)(C(=O)NCc3ccc(Cl)cc3Cl)c3cccnc32)N1 (relative stereo)"
tested_target = "human P2X7 (Homo sapiens (Human))"
result = "101 to 300 nM"

[[record]]
molecule = "O=C(NCc1ccc(F)cc1Cl)[C@@]1(F)CC[C@@H](O)c2ncccc21"
tested_target = "human P2X7 (Homo sapiens (Human))"
result = "101 to 300 nM"

[[record]]
molecule = "O=C(NCCc1ccc(Cl)cc1Cl)[C@]1(F)CC[C@@](O)(CO)c2ncccc21"
tested_target = "human P2X7 (Homo sapiens (Human))"
result = "301 to 1000 nM"

[[record]]
molecule = "O=C(NCc1ccc(Cl)cc1Cl)[C@]1(F)CC[C@@](O)(CF)c2ncccc21"
tested_target = "human P2X7 (Homo sapiens (Human))"
result = "< 50 nM"

[[record]]
molecule = "O=C(NCc1ccc(Cl)cc1Cl)C1(F)CC(O)c2ncccc21 (stereo not drawn)"
tested_target = "human P2X7 (Homo sapiens (Human))"
result = "< 50 nM"

[[record]]
molecule = "O=C(NCc1ccc(Cl)cc1Cl)[C@@]1(F)CC[C@H](F)c2ncccc21"
tested_target = "human P2X7 (Homo sapiens (Human))"
result = "50 to 100 nM"

[[record]]
molecule = "O=C(NCc1c(F)cc(F)cc1Cl)[C@]1(F)CC[C@H](O)c2ncccc21"
tested_target = "human P2X7 (Homo sapiens (Human))"
result = "< 50 nM"

[[record]]
molecule = "O=C(NCc1c(Cl)cc(Cl)cc1CO)C1(F)CCC(O)c2ncccc21 (stereo not drawn)"
tested_target = "human P2X7 (Homo sapiens (Human))"
result = "< 50 nM"

[[record]]
molecule = "CN(CCO)C[C@@]1(O)CC[C@](F)(C(=O)NCc2ccc(Cl)cc2Cl)c2cccnc21"
tested_target = "human P2X7 (Homo sapiens (Human))"
result = "1000 to 3000 nM"

[[record]]
molecule = "CN(C)CC1(O)CCC(F)(C(=O)NCc2cccc(C(F)(F)F)c2Cl)c2cccnc21 (stereo not drawn)"
tested_target = "human P2X7 (Homo sapiens (Human))"
result = "< 50 nM"

[[record]]
molecule = "O=C(NCc1cc(F)cc(Cl)c1)[C@]1(F)CC[C@H](O)c2ncccc21"
tested_target = "human P2X7 (Homo sapiens (Human))"
result = "50 to 100 nM"

[[record]]
molecule = "CN(CCO)C[C@]1(O)CC[C@@](F)(C(=O)NCc2ccc(Cl)cc2Cl)c2cccnc21"
tested_target = "human P2X7 (Homo sapiens (Human))"
result = "< 50 nM"

[[record]]
molecule = "O=C(NCc1c(Cl)cccc1Cl)[C@]1(F)CC[C@H](O)c2ncccc21"
tested_target = "human P2X7 (Homo sapiens (Human))"
result = "< 50 nM"

[[record]]
molecule = "O=C(NCc1ccc(F)cc1F)[C@@]1(F)CC[C@@H](O)c2ncccc21"
tested_target = "human P2X7 (Homo sapiens (Human))"
result = "301 to 1000 nM"

[[record]]
molecule = "O=C(NCc1ccc(F)c(Cl)c1Cl)[C@]1(F)CC[C@@](O)(CO)c2ncccc21"
tested_target = "human P2X7 (Homo sapiens (Human))"
result = "< 50 nM"

[[record]]
molecule = "O=C(NCc1ccc(F)cc1Cl)[C@]1(F)CC[C@@](O)(CN2CC(O)C2)c2ncccc21 (relative stereo)"
tested_target = "human P2X7 (Homo sapiens (Human))"
result = "< 50 nM"

[[record]]
molecule = "O=C(NCc1c(F)cc(F)cc1Cl)[C@]1(F)CC[C@@](O)(CO)c2ncccc21"
tested_target = "human P2X7 (Homo sapiens (Human))"
result = "< 50 nM"

[[record]]
molecule = "C[C@]1(O)CC[C@@](F)(C(=O)NCc2ccc(Cl)cc2F)c2cccnc21"
tested_target = "human P2X7 (Homo sapiens (Human))"
result = "< 50 nM"

[[record]]
molecule = "O=C(NCc1cccc(C(F)(F)F)c1Cl)[C@]1(F)CC[C@H](O)c2ncccc21"
tested_target = "human P2X7 (Homo sapiens (Human))"
result = "< 50 nM"

[[record]]
molecule = "O=C(NCc1ccc(Cl)cc1Cl)[C@]1(F)CCC(S(=O)(=O)CCO)c2ncccc21 (stereo partly drawn)"
tested_target = "human P2X7 (Homo sapiens (Human))"
result = "< 50 nM"

[[record]]
molecule = "O=C(NCC1(c2ccc(Cl)cc2Cl)CCOCC1)[C@]1(F)CC[C@@](O)(CO)c2ncccc21"
tested_target = "human P2X7 (Homo sapiens (Human))"
result = "1000 to 3000 nM"

[[record]]
molecule = "O=C(NCc1c(F)cc(Cl)cc1Cl)[C@]1(F)CC[C@](O)(CO)c2ncccc21"
tested_target = "human P2X7 (Homo sapiens (Human))"
result = "50 to 100 nM"

[[record]]
molecule = "COc1cccc(CNC(=O)[C@]2(F)CC[C@H](O)c3ncccc32)c1Cl"
tested_target = "human P2X7 (Homo sapiens (Human))"
result = "301 to 1000 nM"

[[record]]
molecule = "C[C@@]1(O)CC[C@@](F)(C(=O)NCc2ccc(F)cc2Cl)c2cccnc21"
tested_target = "human P2X7 (Homo sapiens (Human))"
result = "301 to 1000 nM"

[[record]]
molecule = "O=C(NCc1ccc(F)c(F)c1Cl)[C@]1(F)CC[C@](O)(CO)c2ncccc21"
tested_target = "human P2X7 (Homo sapiens (Human))"
result = "50 to 100 nM"

[[record]]
molecule = "CNCC1(O)CCC(C(=O)NCc2c(C)cc(Cl)cc2Cl)c2cccnc21 (stereo not drawn)"
tested_target = "human P2X7 (Homo sapiens (Human))"
result = "< 50 nM"

[[record]]
molecule = "O=C(NCc1ccc(F)c(F)c1F)[C@]1(F)CC[C@@H](O)c2ncccc21"
tested_target = "human P2X7 (Homo sapiens (Human))"
result = "301 to 1000 nM"

[[record]]
molecule = "O=C(NCc1c(F)cc(Cl)cc1Cl)[C@@]1(F)CC[C@@H](O)c2ncccc21"
tested_target = "human P2X7 (Homo sapiens (Human))"
result = "< 50 nM"

